Data origin, for the record: patent US7541352B2

# Test system: HCV replicon cells
# TEST SUMMARY: HCV replicon FRET assay
# Type: cell-based
# MEASUREMENT CONDITIONS: HCV replicon cells; determined using the FRET assay; read-out: EC50
QUANTITY MEASURED: EC50

Look up EC50: COc1ccc2c(c1)C1CC1(NC(=O)C(=O)N1CCCC1)Cn1c-2c(C2CCCCC2)c2ccc(C(=O)NS(=O)(=O)N(C)C)cc21 (stereo not shown) [drawing 39]
1 to 500 nM
